Biological target: Cytochrome P450 1A2 (Homo sapiens) (UniProt P05177)
Sequence (P05177 whole entry, looked up): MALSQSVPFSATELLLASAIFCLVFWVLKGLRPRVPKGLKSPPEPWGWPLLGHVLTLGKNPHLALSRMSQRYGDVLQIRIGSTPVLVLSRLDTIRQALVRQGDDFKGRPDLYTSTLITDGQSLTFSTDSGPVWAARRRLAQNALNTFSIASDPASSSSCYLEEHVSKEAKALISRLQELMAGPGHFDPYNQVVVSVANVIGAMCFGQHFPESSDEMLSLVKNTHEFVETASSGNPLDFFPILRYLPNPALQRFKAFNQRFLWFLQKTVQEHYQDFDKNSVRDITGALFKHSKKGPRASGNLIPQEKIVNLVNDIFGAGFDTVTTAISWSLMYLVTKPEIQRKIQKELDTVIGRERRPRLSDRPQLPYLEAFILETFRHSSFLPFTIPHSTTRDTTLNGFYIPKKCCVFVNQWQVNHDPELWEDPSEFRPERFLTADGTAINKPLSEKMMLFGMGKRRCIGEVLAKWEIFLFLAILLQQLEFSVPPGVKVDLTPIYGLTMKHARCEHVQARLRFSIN
Assay: p450-cyp1a2 (AID 410)
Conditions: recombinant CYP1A2, luciferin-ME demethylation, luminescence; series mostly up to 57 µM
Procedure: The P450 gene superfamily is involved in metabolism and the clearance of xenobiotics. This assay used human CYP1A2 to measure the demethylation of luciferin 6' methyl ether (Luciferin-ME; Promega-Glo) to luciferin. The luciferin is then measured by luminescence after the addition of a luciferase detection regeant. Luciferin-ME concentration in the assay was equal to its Km for CYP1A2. NCGC Assay Protocol Summary: […]
Records with an inconclusive call do not appear. Calls of active or inactive are those of the source. The call rests on the fitted dose curve.
Labels: class 1 (active), class 0 (inactive)

                                 smilesinput                            measuredtarget  classification
 0     COC(=O)N1CCC[C@@]2(CCN(c3ccncc3)C2)C1  Cytochrome P450 1A2 (Homo sapiens) (UniProt P05177)         class 0
 1     CC(=O)NCCNc1cc(-c2ccccc2C(F)(F)F)ncn1  Cytochrome P450 1A2 (Homo sapiens) (UniProt P05177)         class 1
 2   CN1CCN(c2ncnc3ccc(-c4ccccc4C#N)cc23)CC1  Cytochrome P450 1A2 (Homo sapiens) (UniProt P05177)         class 1
 3   N#Cc1cccc(NC(=O)N2CC[C@@]3(CCCNC3)C2)c1  Cytochrome P450 1A2 (Homo sapiens) (UniProt P05177)         class 0
 4  CN1CCN(c2ncc3nc(-c4cc(F)cc(F)c4)c(=O)n(Cc4cccs4)c3n2)CC1  Cytochrome P450 1A2 (Homo sapiens) (UniProt P05177)         class 1
 5     CC(C)CN1CCC2(CC1)CCN(C(=O)c1csnn1)CC2  Cytochrome P450 1A2 (Homo sapiens) (UniProt P05177)         class 0
 6              c1cncc(-c2cncnc2NC2CCNCC2)c1  Cytochrome P450 1A2 (Homo sapiens) (UniProt P05177)         class 1
 7  CN(C)C(=O)c1ccc(-c2cc(NCc3cccnc3)ncn2)cc1  Cytochrome P450 1A2 (Homo sapiens) (UniProt P05177)         class 1
 8          Cc1noc(C)c1-c1nccc(NCc2cccnc2)n1  Cytochrome P450 1A2 (Homo sapiens) (UniProt P05177)         class 1
 9       COCCn1c(=O)c(C)nc2cnc(N3CCNCC3)nc21  Cytochrome P450 1A2 (Homo sapiens) (UniProt P05177)         class 1
10  CS(=O)(=O)N1CCC[C@@]2(CCN(C(=O)Nc3cccc(F)c3)C2)C1  Cytochrome P450 1A2 (Homo sapiens) (UniProt P05177)         class 0

----------
The entries below are paired with their reported activity change, negative = inhibition.
Experiment: AP1 Signaling Pathway (AID 357);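 further: ME-180 reporter cells stimulated with EGF at its EC50 level; on the % scale 0 is the no-effect control and ±100 the full control effect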
Conditions: ME-180 (cervical carcinoma) AP-1-bla reporter, EGF-induced, beta-lactamase ratio, 5 h; at 7.69 µM (top of the series) unless noted
Inconclusive results are not listed.
measurementName: activity change, negative = inhibition (%)

In [3]: df
Out[3]:
                                smilesinput  unitdescriptor  measuredresult
0    COc1cccc(-c2ccc3ncnc(NC4CCNCC4)c3c2)c1               %            2.29
1  N#CCCn1c(=O)c(-c2cccs2)nc2cnc(OCc3ccccc3)nc21               %            9.62
2  O=C(c1cccc(F)c1)N1CCC[C@@]2(CCN(c3ccncc3)C2)C1               %          -0.222
3   COc1ccc(CNc2cc(-c3ccccc3Cl)ncn2)c(OC)c1               %           -3.31
4  Cc1noc(C)c1C(=O)N1CCC2(CCN(Cc3cc(C(F)(F)F)cc(C(F)(F)F)c3)CC2)CC1               %           -3.69
5  CN1CCN(c2nc(-c3ccc(N(C)C)cc3)nc3ccccc23)CC1               %            5.88
